// provenance: paper PMC11784839

The reader will find reported Z Repl 2 values listed item by item below.
- Test Target: tau (Homo sapiens, UniProt P10636)
- Sequence (P10636 623-695 limits assumed): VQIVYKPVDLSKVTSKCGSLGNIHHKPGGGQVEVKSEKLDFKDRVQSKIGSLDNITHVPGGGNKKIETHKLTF
- Test Method Notes: MCE Phenols Library screening, tau biosensor cell seeding assay (AvZ)
- Type: cell-based
- Run Conditions: Z score, replicate 2

[
  {
    "Compound": "O=c1cc(-c2ccc(O)cc2)oc2c([C@@H]3O[C@H](CO)[C@@H](O)[C@H](O)[C@H]3O)c(O)c([C@@H]3OC[C@H](O)[C@H](O)[C@H]3O)c(O)c12 [Isoschaftoside]",
    "Test Target": "tau (Homo sapiens, UniProt P10636)",
    "Z Repl 2": -0.131
  },
  {
    "Compound": "COc1ccc(-c2cc(=O)c3c(O)c(OC)c(OC)cc3o2)cc1OC",
    "Test Target": "tau (Homo sapiens, UniProt P10636)",
    "Z Repl 2": -0.394
  },
  {
    "Compound": "COc1cc(/C=C/C(=O)O)ccc1O",
    "Test Target": "tau (Homo sapiens, UniProt P10636)",
    "Z Repl 2": -0.346
  },
  {
    "Compound": "O=C(O[C@@H]1Cc2c(O)cc(O)cc2O[C@H]1c1cc(O)c(O)c(O)c1)c1cc(O)c(O)c(O)c1 [(-)-Gallocatechin gallate]",
    "Test Target": "tau (Homo sapiens, UniProt P10636)",
    "Z Repl 2": -1.187
  },
  {
    "Compound": "C[C@@H]1O[C@@H](OC[C@H]2O[C@@H](Oc3c(-c4ccc(O)cc4)oc4cc(O)cc(O)c4c3=O)[C@H](O[C@@H]3O[C@@H](C)[C@H](O)[C@@H](O)[C@H]3O)[C@@H](O)[C@H]2O)[C@H](O)[C@H](O)[C@H]1O",
    "Test Target": "tau (Homo sapiens, UniProt P10636)",
    "Z Repl 2": 1.032
  },
  {
    "Compound": "CC(=O)O[C@H]1C(=O)c2c(O)cc(O)cc2O[C@@H]1c1ccccc1 [Pinobanksin 3-acetate]",
    "Test Target": "tau (Homo sapiens, UniProt P10636)",
    "Z Repl 2": -0.125
  },
  {
    "Compound": "CC1OC(OCC2OC(Oc3c(-c4ccc(O)cc4)oc4cc(OC5OC(C)C(O)C(O)C5O)cc(O)c4c3=O)C(O)C(O)C2O)C(O)C(O)C1O (stereo not shown)",
    "Test Target": "tau (Homo sapiens, UniProt P10636)",
    "Z Repl 2": -0.843
  }
]

###

Each entry below lists one item and its recorded Z Repl 2 value.
- Test Target: tau (Homo sapiens)
- Test Method Notes: MCE Phenols Library screening, tau biosensor cell seeding assay (AvZ)
- Format: cell-based
- Run Conditions: Z score, replicate 2
Property Measured: Z Repl 2

[
  {
    "Compound": "Cc1cc(O)c2c(c1)C(=O)c1cc(O)cc(O)c1C2=O",
    "Obs Value": -0.692
  },
  {
    "Compound": "COc1cc(O)c(C(=O)/C=C/c2ccc(O)cc2)cc1CC=C(C)C",
    "Obs Value": 0.23
  },
  {
    "Compound": "COc1cc(/C=C/C=O)cc(OC)c1O",
    "Obs Value": 0.172
  },
  {
    "Compound": "COc1cc(C(C)=O)ccc1O",
    "Obs Value": -0.185
  },
  {
    "Compound": "COc1cc(O)cc(OC)c1",
    "Obs Value": -0.096
  },
  {
    "Compound": "Oc1cccc(O)c1O",
    "Obs Value": -1.067
  },
  {
    "Compound": "COc1cc(C(=O)OCCCCNC(=N)N)cc(OC)c1O",
    "Obs Value": 1.251
  },
  {
    "Compound": "CC(C)=CCc1c(O)cc2oc3cc(O)c(O)c(CC=C(C)C)c3c(=O)c2c1O",
    "Obs Value": -0.111
  },
  {
    "Compound": "O=C(O)CC(O)(CC(=O)OCc1ccc(O[C@@H]2O[C@H](CO)[C@@H](O)[C@H](O)[C@H]2O)cc1)C(=O)OCc1ccc(O[C@@H]2O[C@H](CO)[C@@H](O)[C@H](O)[C@H]2O)cc1 (stereo partly drawn)",
    "Obs Value": 0.318
  }
]

###

- Test Target: tau (Homo sapiens, UniProt P10636)
- Test Method Notes: MCE Phenols Library screening, tau biosensor cell seeding assay (AvZ)
- Assay type: cell-based
- Run Conditions: puncta, replicate 1

[
  {
    "Molecule": "CN(C)[C@@H]1C(O)=C(C(N)=O)C(=O)[C@@]2(O)C(O)=C3C(=O)c4c(O)cccc4[C@@](C)(O)[C@H]3C[C@@H]12.Cl [Tetracycline (hydrochloride)]",
    "raw data 1": 34234.2
  },
  {
    "Molecule": "COc1ccc2cc3[n+](cc2c1OC)CCc1cc(O)c(O)cc1-3 [Demethyleneberberine]",
    "raw data 1": 25297.3
  },
  {
    "Molecule": "O=c1c(-c2ccc(O)cc2)coc2cc(O)cc(O)c12 [Genistein]",
    "raw data 1": 30681.6
  },
  {
    "Molecule": "C[C@@H]1O[C@@H](O[C@H]2[C@H](Oc3c(-c4ccc(O)cc4)oc4cc(O)cc(O)c4c3=O)O[C@H](CO)[C@@H](O)[C@@H]2O)[C@H](O)[C@H](O)[C@H]1O [Kaempferol 3-neohesperidoside]",
    "raw data 1": 9710.86
  },
  {
    "Molecule": "O=C(/C=C/c1ccccc1)c1ccc(O)cc1 [4'-Hydroxychalcone]",
    "raw data 1": 28009.6
  },
  {
    "Molecule": "CC(=O)c1cc(O)ccc1O [2,5-Dihydroxyacetophenone]",
    "raw data 1": 23175.8
  },
  {
    "Molecule": "O=C1c2ccc(O)cc2OCC1c1ccc(O)cc1 (stereo not shown) [Dihydrodaidzein]",
    "raw data 1": 14500
  }
]

###

- Test Target: tau (Homo sapiens)
- Test Method Notes: MCE Phenols Library screening, tau biosensor cell seeding assay (AvZ)
- Assay type: cell-based
- Run Conditions: puncta, replicate 2
*1 amine or outer side, *2 acyl side, *3 side chain or, on linkers, in order; H or OH if unused. Where a SMILES comes first, the peptide text is derived from it. Bridges are numbered along the chain shown (N, C = ends). [ ]: non-standard residue; d: D form. hTyr(3S-OH,4S-OH,3'-OSO3H) = N[C@H](C(=O)O)[C@H](O)[C@@H](O)c1ccc(O)c(OS(=O)(=O)O)c1; Orn(4R-OH,5R-OH) = O=C([C@H](C[C@@H](O)[C@@H](O)N[*:3])N[*:1])[*:2]; Pro(3S-OH,4S-Me) = C[C@H]1CN[C@H](C(=O)O)[C@H]1O; Gln(3R-OH) = NC(=O)C[C@@H](O)[C@H](N)C(=O)O; Hyp = O=C(O)[C@@H]1C[C@@H](O)CN1

[
  {
    "Compound": "C[C@@H](O)[C@@H]1NC(=O)[C@@H](N)C[C@@H](O)[C@@H](O)NC(=O)[C@@H]2[C@@H](O)[C@@H](C)CN2C(=O)[C@H]([C@H](O)CC(N)=O)NC(=O)[C@H]([C@H](O)[C@@H](O)c2ccc(O)c(OS(=O)(=O)O)c2)NC(=O)[C@@H]2C[C@@H](O)CN2C1=O [FR179642] (H-[Orn(4R-OH,5R-OH)]T[Hyp][hTyr(3S-OH,4S-OH,3'-OSO3H)][Gln(3R-OH)][Pro(3S-OH,4S-Me)]; lactam 1-C)",
    "raw data 2": 22235.7
  },
  {
    "Compound": "O=c1c(O)c(-c2ccc(O[C@@H]3O[C@H](CO)[C@@H](O)[C@H](O)[C@H]3O)c(O)c2)oc2cc(O)cc(O)c12 [Spiraeoside]",
    "raw data 2": 11481.5
  },
  {
    "Compound": "COc1ccc2c(c1O)-c1c(OC)c(OC)cc3c1[C@H](C2)N(C)CC3 [Isocorydine]",
    "raw data 2": 5817.19
  },
  {
    "Compound": "O=C(O)c1cc(O)c2c(c1)[C@H]([C@H]1c3cccc(O)c3C(=O)c3c(O)cc(C(=O)O)cc31)c1cccc(O)c1C2=O [Sennidin B]",
    "raw data 2": 11981
  },
  {
    "Compound": "O=c1c(O)c(-c2ccc(O)c(O)c2)oc2cc(O)c(O)c(O)c12 [Quercetagetin]",
    "raw data 2": 132.721
  },
  {
    "Compound": "C=CCc1ccc(O)c(-c2cc(CC=C)ccc2O)c1 [Magnolol]",
    "raw data 2": 24240.1
  }
]

###

- Test Target: tau (Homo sapiens)
- Test Method Notes: MCE Phenols Library screening, tau biosensor cell seeding assay (AvZ)
- Type: cell-based
- Run Conditions: puncta, replicate 1
Entries are sorted into classes by raw data 1 as follows: range A: < 20000; range B: ≥ 20000 and < 30000; range C: ≥ 30000

[
  {
    "Compound": "Cl.NCC(O)c1ccc(O)cc1 (stereo not shown) [Octopamine (hydrochloride)]",
    "Assigned Label": "range B"
  },
  {
    "Compound": "COc1cc(/C=C/C(=O)O)cc(O)c1O [5-Hydroxyferulic acid]",
    "Assigned Label": "range A"
  },
  {
    "Compound": "COc1cc(CNC(=O)CCCCCCCC(C)C)ccc1O [Homodihydrocapsaicin I]",
    "Assigned Label": "range A"
  },
  {
    "Compound": "C=CCc1ccc(O)c(OC)c1 [Eugenol]",
    "Assigned Label": "range B"
  },
  {
    "Compound": "NCCc1ccc(O)cc1 [Tyramine]",
    "Assigned Label": "range B"
  },
  {
    "Compound": "O=C(O[C@@H]1Cc2c(O)cc(O)cc2O[C@H]1c1ccc(O)c(O)c1)c1cc(O)c(O)c(O)c1 [(-)-Catechin gallate]",
    "Assigned Label": "range A"
  },
  {
    "Compound": "O=c1cc(-c2ccc(O)cc2)oc2c([C@@H]3O[C@H](CO)[C@@H](O)[C@H](O)[C@H]3O)c(O)c([C@@H]3OC[C@H](O)[C@H](O)[C@H]3O)c(O)c12 [Isoschaftoside]",
    "Assigned Label": "range B"
  },
  {
    "Compound": "CCCOC(=O)c1ccc(O)cc1 [Propylparaben]",
    "Assigned Label": "range B"
  },
  {
    "Compound": "COc1cc(O)c2c(c1)O[C@H](c1cc(O)cc(O)c1)CC2=O [Blumeatin]",
    "Assigned Label": "range A"
  },
  {
    "Compound": "C/C=C/c1cc(OC)c2c(c1)C(C)C(c1ccc(O)c(OC)c1)O2 (stereo not shown) [Dehydrodiisoeugenol]",
    "Assigned Label": "range C"
  },
  {
    "Compound": "COc1cc(O)c2c(=O)cc(-c3ccccc3)oc2c1 [Tectochrysin]",
    "Assigned Label": "range C"
  },
  {
    "Compound": "O=Cc1cccc(O)c1 [3-Hydroxybenzaldehyde]",
    "Assigned Label": "range B"
  },
  {
    "Compound": "Oc1cc(O)c2ccc(-c3ccc(O)c(O)c3)[o+]c2c1.[Cl-] [Luteolinidin (chloride)]",
    "Assigned Label": "range A"
  },
  {
    "Compound": "CC(=O)c1ccc(C)cc1O [2'-Hydroxy-4'-methylacetophenone]",
    "Assigned Label": "range C"
  },
  {
    "Compound": "COc1ccc(O)c(C(=O)O)c1 [5-Methoxysalicylic acid]",
    "Assigned Label": "range B"
  },
  {
    "Compound": "O=C(O)c1cc(O)c2c(c1)[C@H]([C@H]1c3cccc(O)c3C(=O)c3c(O)cc(C(=O)O)cc31)c1cccc(O)c1C2=O [Sennidin B]",
    "Assigned Label": "range C"
  },
  {
    "Compound": "COc1cc(/C=C/CO)ccc1O [Coniferyl alcohol]",
    "Assigned Label": "range C"
  },
  {
    "Compound": "CC(C)=CC[C@H](OC(=O)C=C(C)C)C1=CC(=O)c2c(O)ccc(O)c2C1=O [?,?-Dimethylacrylalkannin]",
    "Assigned Label": "range C"
  },
  {
    "Compound": "O=C1N[C@@H]2C(=C[C@H](O)[C@@H](O)[C@H]2O)c2cc3c(c(O)c21)OCO3 [Narciclasine]",
    "Assigned Label": "range A"
  },
  {
    "Compound": "COc1ccc(-c2cc(=O)c3c(O)c(OC)c(OC)c(OC)c3o2)cc1 [Gardenin B]",
    "Assigned Label": "range C"
  },
  {
    "Compound": "C=C(C)[C@H](CC=C(C)C)Cc1c(O)cc(O)c2c1O[C@H](c1ccc(O)cc1OC)CC2=O [Leachianone A]",
    "Assigned Label": "range B"
  },
  {
    "Compound": "O=c1cc(-c2ccc(O)cc2)oc2cc(O)c(O)c(O)c12 [Scutellarein]",
    "Assigned Label": "range A"
  },
  {
    "Compound": "COc1ccc2cc3[n+](cc2c1O)CCc1cc2c(cc1-3)OCO2.[Cl-] [Berberrubine (chloride)]",
    "Assigned Label": "range B"
  },
  {
    "Compound": "O=Cc1ccc(O)c(O)c1 [Protocatechualdehyde]",
    "Assigned Label": "range A"
  },
  {
    "Compound": "CC[C@@H](C(=O)[C@@H](C)[C@@H](O)[C@H](C)CCc1ccc(C)c(O)c1C(=O)O)[C@H]1O[C@](CC)([C@H]2CC[C@](O)(CC)[C@H](C)O2)C[C@@H]1C [Lasalocid]",
    "Assigned Label": "range C"
  },
  {
    "Compound": "OCCc1ccccc1 [2-Phenylethanol]",
    "Assigned Label": "range C"
  },
  {
    "Compound": "O=C(OCC1=C[C@@H](O)[C@@H]2C=CO[C@@H](O[C@@H]3O[C@H](CO)[C@@H](O)[C@H](O)[C@H]3O)[C@H]12)c1ccc(O)cc1 [Agnuside]",
    "Assigned Label": "range B"
  },
  {
    "Compound": "COc1ccc(-c2cc(=O)c3c(O)c(OC)c(OC)cc3o2)cc1O [Eupatorin]",
    "Assigned Label": "range C"
  },
  {
    "Compound": "O=C(O)c1cc(O)c2cccc(O)c2n1 [Xanthurenic acid]",
    "Assigned Label": "range C"
  },
  {
    "Compound": "O=C(O[C@@H]1[C@@H](O)[C@H](Oc2cc(O)c(C(=O)CCc3ccccc3)c(O)c2)O[C@@H]2COC(=O)c3cc(O)c(O)c(O)c3-c3c(cc(O)c(O)c3O)C(=O)O[C@@H]12)c1cc(O)c(O)c(O)c1 [Thonningianin A]",
    "Assigned Label": "range A"
  }
]
